- ASSAYED TARGET: ALK2 FOP mutant (aa172-499 R206H) (Homo sapiens (Human), UniProt Q04771, R206H)
- Sequence (Q04771 172-499 R206H): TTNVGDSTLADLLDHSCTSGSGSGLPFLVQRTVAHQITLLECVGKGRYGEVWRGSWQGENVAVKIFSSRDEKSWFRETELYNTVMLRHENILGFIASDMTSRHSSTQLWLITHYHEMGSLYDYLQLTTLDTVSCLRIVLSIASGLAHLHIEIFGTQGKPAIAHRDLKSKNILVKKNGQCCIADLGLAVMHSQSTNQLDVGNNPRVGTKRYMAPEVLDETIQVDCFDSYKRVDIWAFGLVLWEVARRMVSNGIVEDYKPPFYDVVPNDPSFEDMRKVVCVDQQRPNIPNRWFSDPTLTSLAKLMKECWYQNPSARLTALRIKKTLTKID
- MEASUREMENT NOTES: Caliper biochemical peptide phosphorylation assay, ALK2 FOP
- CONDITION LABEL: Caliper peptide phosphorylation, R206H, 15 uM ATP; read-out: ALK2 FOP EPK IC50
pIC50: −log10 of the molar value.
MEASURED ATTRIBUTE: pIC50

>>> measured_number("CC(C)n1cc(-c2cncc(-c3ccc4c(c3)CS(=O)(=O)N4C)c2)ccc1=O")
7.22
>>> measured_number("CCC1C(=O)N(C)c2ccc(-c3cncc(-c4ccc(=O)n(C(C)C)c4)c3)cc21 (stereo not shown)")
6.47
>>> measured_number("CC(C)n1cc(-c2cncc(-c3cc4c(cc3F)N(C)C(=O)C4)c2)ccc1=O")
7.05
>>> measured_number("CC(C)n1nc(-c2cncc(-c3ccc4c(c3)CC(=O)N4C)c2)ccc1=O")
7.10

---

Here we list compounds with their recorded pIC50 when tested on ALK5 (aa162-503) (Homo sapiens (Human)).
Sequence (P36897 162-503): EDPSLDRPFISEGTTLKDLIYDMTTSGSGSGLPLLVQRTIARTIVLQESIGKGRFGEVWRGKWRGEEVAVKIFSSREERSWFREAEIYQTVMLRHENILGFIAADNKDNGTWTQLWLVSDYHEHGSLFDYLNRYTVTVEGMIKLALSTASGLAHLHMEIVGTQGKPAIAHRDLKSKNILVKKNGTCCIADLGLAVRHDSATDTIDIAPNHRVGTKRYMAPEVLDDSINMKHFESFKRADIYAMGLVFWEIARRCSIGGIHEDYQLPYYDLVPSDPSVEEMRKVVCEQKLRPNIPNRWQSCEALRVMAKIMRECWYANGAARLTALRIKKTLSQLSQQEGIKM
pIC50: −log10 of the molar value.
MEASURED ATTRIBUTE: pIC50

>>> measured_number("CCC(C)n1cc(-c2cncc(-c3ccc4c(c3)CC(=O)N4C)c2)ccc1=O (stereo not shown)")
5.36
>>> measured_number("CC(C)n1cc(-c2cc(-c3ccc4c(c3)CC(=O)N4C)cnc2N)ccc1=O")
5.25

---

- ASSAYED TARGET: ALK2 FOP mutant (aa172-499 R206H) (Homo sapiens (Human), UniProt Q04771, R206H)
- MEASUREMENT NOTES: Caliper biochemical peptide phosphorylation assay, ALK2 FOP
- CONDITION LABEL: Caliper peptide phosphorylation, R206H, 15 uM ATP; read-out: ALK2 FOP EPK IC50
Below, each entry is listed alongside its reported IC50.
MEASURED ATTRIBUTE: IC50 (µM)

>>> measured_number("CC(C)n1cc(-c2cncc(-c3cc(F)c4c(c3)CC(=O)N4C)c2)ccc1=O")
0.23
>>> measured_number("Cc1cc(-c2cncc(-c3ccc(=O)n(C(C)C)c3)c2)cc2c1N(C)C(=O)C2")
0.091
>>> measured_number("CC(C)n1cc(-c2cncc(-c3ccc4c(c3)CC(=O)N4C)n2)ccc1=O")
0.11
>>> measured_number("CCCN1C(=O)Cc2cc(-c3cncc(-c4ccc(=O)n(C(C)C)c4)c3)ccc21")
0.07
>>> measured_number("CN1C(=O)Cc2cc(-c3cncc(-c4ccc(=O)n(CCC(F)(F)F)c4)c3)ccc21")
0.83
>>> measured_number("CN1C(=O)Cc2cc(-c3cncc(-c4ccc(=O)n(C5CC5)c4)c3)ccc21")
0.39
>>> measured_number("CN1C(=O)Cc2cc(-c3cncc(-c4ccc(=O)n(C5CCC5)c4)c3)ccc21")
0.18
>>> measured_number("CC1C(=O)Nc2cc(-c3cncc(-c4ccc(=O)n(C(C)C)c4)c3)ccc21 (centres unmarked)")
0.15

---

- ASSAYED TARGET: wild-type ALK2 (aa172-499) (Homo sapiens (Human), UniProt Q04771)
- Sequence (Q04771 172-499): as the sequence (Q04771 172-499 R206H) above, with H35R counted along it
- MEASUREMENT NOTES: Caliper biochemical peptide phosphorylation assay, ALK2
- CONDITION LABEL: read-out: IC50 in the ALK2 assay
pIC50: −log10 of the molar value.
MEASURED ATTRIBUTE: pIC50

>>> result("CC(C)n1cc(-c2cncc(-c3cnc4c(c3)C(C)(C)C(=O)N4C)c2)ccc1=O")
"< 6.00"
